- system.tested: C-C chemokine receptor type 3 (Homo sapiens)
- test.description: Antagonist activity at human CCR3 expressed in CHO-K1 cells at 20 uM by PathHunter beta-arrestin assay relative to control
- Format: cell-based
- measurement.setup: filed as antagonist

>  <smiles.representation>
COC(=O)[C@@H]1[C@H]2C[C@@H](OCc3ccc(Br)cc3)c3[nH]c4ccccc4c3CCN(C#N)C[C@@H]2CC[C@@H]1O

>  <inhibition, %>
50

$$$$
>  <smiles.representation>
COC(=O)[C@@H]1[C@H]2C[C@@H](c3[nH]c4ccccc4c3CCn3cc(-c4cccc(Cl)c4)nn3)N(C#N)C[C@@H]2CC[C@@H]1O

>  <inhibition, %>
112

$$$$
>  <smiles.representation>
COC(=O)[C@@H]1[C@H]2C[C@@H]3N(CC[C@@]34C(=O)N(Cc3cccc(OC)c3)c3ccccc34)C[C@@H]2CC[C@@H]1OCc1cccc(OC)c1

>  <inhibition, %>
89

$$$$
>  <smiles.representation>
COC(=O)[C@@H]1[C@H]2C[C@@H]3OCc4ccccc4-n4c3c(c3ccccc34)CCN(C#N)C[C@@H]2CC[C@@H]1O

>  <inhibition, %>
2

$$$$

----------
- system.tested: C-C chemokine receptor type 8 (Homo sapiens)
- Sequence (P51685 whole entry): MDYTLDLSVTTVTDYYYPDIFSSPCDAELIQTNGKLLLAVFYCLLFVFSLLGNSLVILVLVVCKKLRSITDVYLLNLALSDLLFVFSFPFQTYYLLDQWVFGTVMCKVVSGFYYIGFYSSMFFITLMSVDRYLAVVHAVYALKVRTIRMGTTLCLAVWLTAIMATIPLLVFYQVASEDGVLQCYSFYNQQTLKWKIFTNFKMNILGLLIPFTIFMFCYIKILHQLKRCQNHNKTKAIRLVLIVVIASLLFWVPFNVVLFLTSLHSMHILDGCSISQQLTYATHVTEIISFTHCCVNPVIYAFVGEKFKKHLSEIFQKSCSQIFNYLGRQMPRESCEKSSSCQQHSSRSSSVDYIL
- test.description: Antagonist activity at human CCR8 expressed in CHO-K1 cells by PathHunter beta-arrestin assay
pIC50: −log10 of the molar value.
experimental.endpoint: pIC50

>  <smiles.representation>
COC(=O)[C@@H]1[C@H]2C[C@@H](c3[nH]c4ccccc4c3CCn3cc(-c4cccc(Cl)c4)nn3)N(C#N)C[C@@H]2CC[C@@H]1O

>  <value.reported>
5.14

$$$$

----------
- system.tested: Vasopressin V2 receptor (Homo sapiens)
- Sequence (P30518 whole entry): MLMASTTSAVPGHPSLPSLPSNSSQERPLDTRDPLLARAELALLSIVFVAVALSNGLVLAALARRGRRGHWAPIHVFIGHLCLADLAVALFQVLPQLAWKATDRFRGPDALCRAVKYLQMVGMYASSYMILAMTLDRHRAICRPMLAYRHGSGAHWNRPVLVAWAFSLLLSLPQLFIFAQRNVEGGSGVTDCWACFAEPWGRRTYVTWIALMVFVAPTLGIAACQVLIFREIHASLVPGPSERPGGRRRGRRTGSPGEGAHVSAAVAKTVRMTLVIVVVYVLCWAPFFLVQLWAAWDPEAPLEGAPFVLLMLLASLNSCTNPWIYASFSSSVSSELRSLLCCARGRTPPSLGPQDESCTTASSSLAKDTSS
- test.description: Antagonist activity at human AVPR2 at 20 uM by PathHunter beta-arrestin assay relative to control
- measurement.setup: filed as antagonist

>  <smiles.representation>
COC(=O)[C@@H]1[C@H]2C[C@@H](OCc3ccc(Br)cc3)c3[nH]c4ccccc4c3CCN(C#N)C[C@@H]2CC[C@@H]1O

>  <inhibition / %>
1

$$$$
>  <smiles.representation>
COC(=O)[C@@H]1[C@H]2C[C@@H]3OCc4ccccc4-n4c3c(c3ccccc34)CCN(C#N)C[C@@H]2CC[C@@H]1O

>  <inhibition / %>
16

$$$$
>  <smiles.representation>
COC(=O)[C@@H]1[C@H]2C[C@@H](c3[nH]c4ccccc4c3CCn3cc(-c4cccc(Cl)c4)nn3)N(C#N)C[C@@H]2CC[C@@H]1O

>  <inhibition / %>
7

$$$$
>  <smiles.representation>
COC(=O)[C@@H]1[C@H]2C[C@@H]([C@@]3(CCn4cc(CCCCO)nn4)C(=O)Nc4ccccc43)N(C#N)C[C@@H]2CC[C@@H]1O

>  <inhibition / %>
1

$$$$
>  <smiles.representation>
COC(=O)[C@@H]1[C@H]2C[C@@H]3N(CC[C@@]34C(=O)N(c3cncc(OC)n3)c3ccccc34)C[C@@H]2CC[C@@H]1O

>  <inhibition / %>
9

$$$$
>  <smiles.representation>
COC(=O)[C@@H]1[C@H]2C[C@@H]3N(CC[C@@]34C(=O)N(Cc3cccc(OC)c3)c3ccccc34)C[C@@H]2CC[C@@H]1OCc1cccc(OC)c1

>  <inhibition / %>
83

$$$$

----------
- system.tested: D(2) dopamine receptor (Homo sapiens) (UniProt P14416)
- Sequence (P14416 whole entry): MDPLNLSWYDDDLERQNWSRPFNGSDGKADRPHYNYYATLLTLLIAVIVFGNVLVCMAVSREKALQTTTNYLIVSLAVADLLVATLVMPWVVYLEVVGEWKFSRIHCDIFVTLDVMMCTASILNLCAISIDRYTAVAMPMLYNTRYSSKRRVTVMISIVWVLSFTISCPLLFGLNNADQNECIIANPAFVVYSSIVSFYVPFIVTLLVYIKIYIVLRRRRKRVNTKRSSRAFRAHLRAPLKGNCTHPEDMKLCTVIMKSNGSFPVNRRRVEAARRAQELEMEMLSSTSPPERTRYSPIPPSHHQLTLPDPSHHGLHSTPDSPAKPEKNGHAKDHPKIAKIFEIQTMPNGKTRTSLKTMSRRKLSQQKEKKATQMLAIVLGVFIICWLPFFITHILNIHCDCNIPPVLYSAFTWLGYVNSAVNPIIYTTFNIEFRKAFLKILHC
- test.description: Agonist activity at human DRD2L expressed in CHO-K1 cells at 20 uM by PathHunter beta-arrestin assay relative to control
- Assay type: cell-based
Calls of active or inactive are those of the source. No cut-off for these calls is given here.

>  <smiles.representation>
COC(=O)[C@@H]1[C@H]2C[C@@H]3N(CC[C@@]34C(=O)N(Cc3cccc(OC)c3)c3ccccc34)C[C@@H]2CC[C@@H]1OCc1cccc(OC)c1

>  <system.tested>
D(2) dopamine receptor (Homo sapiens) (UniProt P14416)

>  <Activity>
inactive

$$$$
>  <smiles.representation>
COC(=O)[C@@H]1[C@H]2C[C@@H](c3[nH]c4ccccc4c3CCn3cc(-c4cccc(Cl)c4)nn3)N(C#N)C[C@@H]2CC[C@@H]1O

>  <system.tested>
D(2) dopamine receptor (Homo sapiens) (UniProt P14416)

>  <Activity>
inactive

$$$$
>  <smiles.representation>
COC(=O)[C@@H]1[C@H]2C[C@@H]3OCc4ccccc4-n4c3c(c3ccccc34)CCN(C#N)C[C@@H]2CC[C@@H]1O

>  <system.tested>
D(2) dopamine receptor (Homo sapiens) (UniProt P14416)

>  <Activity>
inactive

$$$$
